// data source = ChEMBL document CHEMBL4382216

- Tested on: THP-1
- Test details: Cytotoxicity against human THP1 cells harboring NFkB-Luc assessed as LDH release at 10'8 M after 24 hrs by spectrophotometric method relative to control
- Type: cell-based
- Experimental parameters: thp-1, 24 h
Catalogue of compounds with associated fold change (FC)

| Compound smiles | fold change (FC) |
| --- | --- |
| CCCCC[C@@H](O)c1c(/C=C/[C@@H](O)[C@@H](O)CCCC(=O)OC)nc(C)n1C | 0.9 |
| CCCCC[C@H](O)c1nc(-c2ccccc2)n(-c2ccccc2)c1/C=C/[C@@H](O)[C@@H](O)CCCC(=O)OC | 1 |
| CCCCC[C@@H](O)c1nc(-c2ccccc2)n(-c2ccccc2)c1/C=C/[C@@H](O)[C@@H](O)CCCC(=O)OC | 0.9 |
| CCCCC[C@H](O)c1nc(-c2ccccc2)oc1/C=C/[C@@H](O)[C@@H](O)CCCC(=O)OC(C)C | 1 |

====

Catalogue of molecules with associated fold change (FC)
- Test system: THP-1
- Test details: Cytotoxicity against human THP1 cells harboring NFkB-Luc assessed as LDH release at 10'11 M after 24 hrs by spectrophotometric method relative to control
- Type: cell-based
- Experimental parameters: thp-1, 24 h
Measurement label: fold change (FC)

| Compound smiles | Measurement label | Reported result |
| --- | --- | --- |
| CCCCC[C@@H](O)c1nc(-c2ccccc2)n(-c2ccccc2)c1/C=C/[C@@H](O)[C@@H](O)CCCC(=O)OC | fold change (FC) | 0.5 |
| CCCCC[C@H](O)c1nc(-c2ccccc2)oc1/C=C/[C@@H](O)[C@@H](O)CCCC(=O)OC(C)C | fold change (FC) | 1.1 |
| CCCCC[C@H](O)c1nc(-c2ccccc2)n(-c2ccccc2)c1/C=C/[C@@H](O)[C@@H](O)CCCC(=O)OC | fold change (FC) | 0.6 |
| CCCCC[C@@H](O)c1c(/C=C/[C@@H](O)[C@@H](O)CCCC(=O)OC)nc(C)n1C | fold change (FC) | 0.9 |

====

Catalogue of molecules with associated fold change (FC)
- Tested on: THP-1
- Test details: Cytotoxicity against human THP1 cells harboring NFkB-Luc assessed as LDH release at 10'12 M after 24 hrs by spectrophotometric method relative to control
- Assay type: cell-based
- Experimental parameters: thp-1, 24 h
Measurement label: fold change (FC)

| Compound smiles | Reported result |
| --- | --- |
| CCCCC[C@@H](O)c1nc(-c2ccccc2)n(-c2ccccc2)c1/C=C/[C@@H](O)[C@@H](O)CCCC(=O)OC | 0.5 |
| CCCCC[C@H](O)c1nc(-c2ccccc2)oc1/C=C/[C@@H](O)[C@@H](O)CCCC(=O)OC(C)C | 1.1 |
| CCCCC[C@@H](O)c1c(/C=C/[C@@H](O)[C@@H](O)CCCC(=O)OC)nc(C)n1C | 1 |
| CCCCC[C@H](O)c1nc(-c2ccccc2)n(-c2ccccc2)c1/C=C/[C@@H](O)[C@@H](O)CCCC(=O)OC | 0.6 |
| CCCCC[C@@H](O)c1ccccc1/C=C/[C@@H](O)[C@@H](O)CCCC(=O)OC | 0.9 |

====

- Organism: Homo sapiens
- Test details: Activation of Luc-fused NFkB (unknown origin) expressed in non-stimulated human THP1 cells assessed as relative luminescence unit at 10^-8 M after 24 hrs by luciferase reporter gene assay (reference value: 100%)
- Type: cell-based

| Compound smiles | Activity |
| --- | --- |
| CCCCC[C@H](O)c1nc(-c2ccccc2)n(-c2ccccc2)c1/C=C/[C@@H](O)[C@@H](O)CCCC(=O)OC | 1.2% |
| CCCCC[C@@H](O)c1nc(-c2ccccc2)n(-c2ccccc2)c1/C=C/[C@@H](O)[C@@H](O)CCCC(=O)OC | 1.2% |
| CCCCC[C@@H](O)c1nc(-c2ccccc2)oc1/C=C/[C@@H](O)[C@@H](O)CCCC(=O)OC(C)C | 2.6% |
| CCCCC[C@@H](O)c1c(/C=C/[C@@H](O)[C@@H](O)CCCC(=O)OC)nc(C)n1C | 2.1% |
| CCCCC[C@H](O)c1nc(-c2ccccc2)oc1/C=C/[C@@H](O)[C@@H](O)CCCC(=O)OC(C)C | 4.3% |
| CCC[C@H](O)c1c(/C=C/[C@@H](O)[C@@H](O)CCCC(=O)OC)nc(C)n1C | 1.6% |
| COC(=O)CCC[C@H](O)[C@H](O)/C=C/c1nc(C)n(C)c1[C@@H](C)O | 10.4% |

====

Catalogue of molecules with associated viability
- Test details: Cytotoxicity against mouse J774.1 cells assessed as cell viability by MTS assay relative to control
- Format: cell-based
- Experimental parameters: read-out: Activity

| Compound smiles | viability |
| --- | --- |
| CCCCC[C@H](O)/C=C/C=C\C=C\C=C\[C@@H](O)[C@@H](O)CCCC(=O)O | 95 to 100% |
| CCCCC[C@H](O)c1nc(-c2ccccc2)n(-c2ccccc2)c1/C=C/[C@@H](O)[C@@H](O)CCCC(=O)OC | 95 to 100% |
| CCCCC[C@@H](O)c1nc(-c2ccccc2)n(-c2ccccc2)c1/C=C/[C@@H](O)[C@@H](O)CCCC(=O)OC | 95 to 100% |

====

Catalogue of compounds with associated Activity
- Assayed system: N-formyl peptide receptor 2 (Homo sapiens) (UniProt P25090)
- Test details: Agonist activity at ALX/FPR2 in human THP1 cells harboring NF-kB-Luc assessed as inhibition of LPS-induced NFkB signalling activation by measuring NF-kB activation level at 10^-6 M pretreated for 30 mins followed by LPS stimulation for 24 hrs by luciferase reporter gene assay
- Type: cell-based
- Design: scale not given: the % may be the effect or the level left

| Compound | Activity |
| --- | --- |
| C[C@@H]1C[C@H]2[C@@H]3CCC4=CC(=O)C=C[C@]4(C)[C@@]3(F)[C@@H](O)C[C@]2(C)[C@@]1(O)C(=O)CO [DEXAMETHASONE] | 53.2% |
| CCCCC[C@H](O)/C=C/C=C\C=C\C=C\[C@@H](O)[C@@H](O)CCCC(=O)O [LIPOXIN A4] | 93.3% |
| CCCCC[C@H](O)c1nc(-c2ccccc2)n(-c2ccccc2)c1/C=C/[C@@H](O)[C@@H](O)CCCC(=O)OC | 90.2% |
| CCCCC[C@@H](O)c1nc(-c2ccccc2)n(-c2ccccc2)c1/C=C/[C@@H](O)[C@@H](O)CCCC(=O)OC | 88.5% |

====

- Assayed system: N-formyl peptide receptor 2 (Homo sapiens, UniProt P25090)
- Sequence (P25090 whole entry): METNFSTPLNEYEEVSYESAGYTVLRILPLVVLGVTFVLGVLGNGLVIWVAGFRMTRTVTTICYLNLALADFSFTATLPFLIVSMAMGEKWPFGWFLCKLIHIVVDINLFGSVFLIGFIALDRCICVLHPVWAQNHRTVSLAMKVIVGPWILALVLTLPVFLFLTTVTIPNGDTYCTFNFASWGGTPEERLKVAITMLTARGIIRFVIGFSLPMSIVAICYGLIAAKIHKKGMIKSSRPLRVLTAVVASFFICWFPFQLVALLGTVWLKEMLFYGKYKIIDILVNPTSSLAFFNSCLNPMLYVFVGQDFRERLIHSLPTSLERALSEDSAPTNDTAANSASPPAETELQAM
- Test details: Agonist activity at ALX/FPR2 in human THP1 cells harboring NF-kB-Luc assessed as inhibition of LPS-induced NFkB signalling activation by measuring reduction in IL-12p70 secretion pretreated for 30 mins followed by LPS stimulation for 24 hrs by electrochemiluminescence assay
- Type: cell-based
- Experimental parameters: read-out: IC50

| Compound smiles | IC50 [nM] |
| --- | --- |
| CCCCC[C@H](O)c1nc(-c2ccccc2)oc1/C=C/[C@@H](O)[C@@H](O)CCCC(=O)OC(C)C | 5.1 |
| CCCCC[C@H](O)c1nc(-c2ccccc2)n(-c2ccccc2)c1/C=C/[C@@H](O)[C@@H](O)CCCC(=O)OC | 1 |
| CCCCC[C@H](O)c1c(/C=C/[C@@H](O)[C@@H](O)CCCC(=O)OC)nc(C)n1C | 0.1 |
| CCC[C@H](O)c1c(/C=C/[C@@H](O)[C@@H](O)CCCC(=O)OC)nc(C)n1C | 6 |
| CCC[C@@H](O)c1c(/C=C/[C@@H](O)[C@@H](O)CCCC(=O)OC)nc(C)n1C | 3.4 |
| CCCCC[C@@H](O)c1nc(-c2ccccc2)n(-c2ccccc2)c1/C=C/[C@@H](O)[C@@H](O)CCCC(=O)OC | 10 |
| CCCCC[C@H](O)/C=C/C=C\C=C\C=C\[C@@H](O)[C@@H](O)CCCC(=O)O | 11.8 |
| COC(=O)CCC[C@H](O)[C@H](O)/C=C/c1nc(C)n(C)c1[C@@H](C)O | 3.8 |
| CCCCC[C@@H](O)c1c(/C=C/[C@@H](O)[C@@H](O)CCCC(=O)OC)nc(C)n1C | 5.1 |

====

Catalogue of molecules with associated fold change (FC)
- Test system: THP-1
- Test details: Cytotoxicity against human THP1 cells harboring NFkB-Luc assessed as LDH release at 10'10 M after 24 hrs by spectrophotometric method relative to control
- Type: cell-based
- Experimental parameters: thp-1, 24 h

| Compound smiles | fold change (FC) |
| --- | --- |
| CCCCC[C@@H](O)c1c(/C=C/[C@@H](O)[C@@H](O)CCCC(=O)OC)nc(C)n1C | 0.9 |
| CCCCC[C@@H](O)c1nc(-c2ccccc2)n(-c2ccccc2)c1/C=C/[C@@H](O)[C@@H](O)CCCC(=O)OC | 0.6 |
| CCCCC[C@H](O)c1nc(-c2ccccc2)n(-c2ccccc2)c1/C=C/[C@@H](O)[C@@H](O)CCCC(=O)OC | 0.6 |
| CCCCC[C@H](O)c1nc(-c2ccccc2)oc1/C=C/[C@@H](O)[C@@H](O)CCCC(=O)OC(C)C | 1 |
